molecular target: T1, recombinant human CD40-his (Acro biosystems, Cat. No. CD0-H5228) (human, UniProt P25942 21-193); experiment: SPR (Biacore T200), antibody captured on anti-human IgG chip, CD40-his as analyte, 1:1 fit
T1 construct: Bought protein; also called human CD40-his protein; not shown: His tag
T1 sequence (P25942 21-193 limits assumed): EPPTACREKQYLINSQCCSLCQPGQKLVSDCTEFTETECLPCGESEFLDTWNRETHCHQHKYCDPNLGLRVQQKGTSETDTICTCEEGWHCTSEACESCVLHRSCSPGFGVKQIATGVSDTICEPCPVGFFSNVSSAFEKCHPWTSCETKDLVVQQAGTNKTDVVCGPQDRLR
experimental endpoint: pKd
Please note pKd is a logarithmic value: minus log10 of concentration in mol/L. Answer with that number alone.

Return the recorded pKd value; entry: humanized antibody huC1H1-V1 (antibody, human IgG2, kappa, V domains shown, Human IgG2 / kappa) VH: EVQLVESGGGLVKPGGSLRLSCAASGFTFSNYGISWVRQAPGKGLEWVASISSGGDNTYYPDNVKGRFTISRDNAKNSLYLQMNSLRAEDTAVYYCARAGEKAMDYWGQGTLVTVSS VL: EIVLTQSPATLSLSPGERATLSCRASQTINNNLHWYQQKPGQAPRLLIKYASQSISGIPARFSGSGSGTDFTLTISSLEPEDFAVYFCQQFSSWPLTFGGGTKVEIKR
8.96
